Reported GI50 values follow for various compounds
# Test system: LNCaP cells
# procedureText: Cell proliferation / viability XTT assay, LNCaP
# Type: cell-based
# assayConditions: Homo sapiens, read-out: Cell growth inhibition GI50 LNCaP

compound	unitDescriptor	GI50
C[C@]12CC[C@@H](N=[N+]=[N-])CC1=CC[C@@H]1[C@@H]2CC[C@]2(C)C(n3cnc4ccccc43)=CC[C@@H]12	µM	7
C[C@]12CCC(F)CC1=CC[C@@H]1[C@@H]2CC[C@]2(C)C(n3cnc4ccccc43)=CC[C@@H]12 (stereo partly shown)	µM	8
C[C@]12CC[C@H](O)C[C@@H]1CC[C@@H]1[C@@H]2CC[C@]2(C)C(n3cnc4ccccc43)=CC[C@@H]12	µM	17.6
C[C@]12CC[C@H](O)CC1=CC[C@@H]1[C@@H]2CC[C@]2(C)C(n3cnc4ccccc43)=CC[C@@H]12	µM	6

###

As a worked illustration, we turn to EC50 data collected for mutant T877A AR (in LNCaP cells) (Homo sapiens, UniProt P10275, T878A).

compound	EC50 (nM)
C[C@]12CC[C@@H](N=[N+]=[N-])CC1=CC[C@@H]1[C@@H]2CC[C@]2(C)C(n3cnc4ccccc43)=CC[C@@H]12 [Compound 8]	4340
C[C@]12CCC(F)CC1=CC[C@@H]1[C@@H]2CC[C@]2(C)C(n3cnc4ccccc43)=CC[C@@H]12 (some centres unmarked) [Compound 6]	1600
